Details: in n-butanol, 288.85 K
Recorded endpoint: solubility (mole fraction)
Give the figure by itself; no unit, no explanation.

solubility (mole fraction) reported for this compound C[C@@H](O[C@H]1OCCN(Cc2n[nH]c(=O)[nH]2)[C@H]1c1ccc(F)cc1)c1cc(C(F)(F)F)cc(C(F)(F)F)c1 : 0.00131

====

Conditions: in methanol, 306.65 K
Recorded endpoint: solubility (mole fraction)
Give the figure by itself; no unit, no explanation.

solubility (mole fraction) reported for this compound C[C@@H](O[C@H]1OCCN(Cc2n[nH]c(=O)[nH]2)[C@H]1c1ccc(F)cc1)c1cc(C(F)(F)F)cc(C(F)(F)F)c1 : 0.00513
